Test system: P12-Ichikawa
Test: AUC of viability dose-response curve (% viability x log10 dose units); higher = less sensitive
Conditions: RPMI 5 mM glucose + 10% dialyzed FBS; 48 h
parameter: AUC of viability dose-response curve
Response field accepts a number only; no unit should be typed.

[[record]]
molecule = "O=C(O)C(=O)c1cn(Cc2ccccc2)c2ccc(-c3ccc(OC(F)(F)F)cc3)cc12"
measurednumber = 466

[[record]]
molecule = "CCCCOc1c(C(=O)c2c(F)cc(C)cc2F)cnc2[nH]ncc12"
measurednumber = 435

[[record]]
molecule = "O=C(CCCN1CCN(c2ccc(F)cc2)CC1)NC1c2ccccc2CSc2ccccc21 (centres undefined)"
measurednumber = 434


Task: Return AUC of viability dose-response curve for the following molecule: ClC/1=C(NCCN2CCOCC2)/C(=O)C3=C(C=CC=N3)C1=O
Output: 438

Task: Dear colleague, please send me the reported AUC of viability dose-response curve for CCN[C@H]1C[C@H](C)[S+](=O)([O-])c2sc([S+](N)(=O)[O-])cc21 when you can.
Output: 471

Task: Give me measured AUC of viability dose-response curve, please, for this molecule: Cc1cc2c(C(N)=O)cccc2n1-c1nc2c(c(NCc3ccccc3)n1)COCC2
Output: 334

Task: Output measured AUC of viability dose-response curve for this item: O=C(O)CCNC(=O)c1ccc(/N=N/c2ccc(O)c(C(=O)O)c2)cc1
Output: 443

Task: Fill in AUC of viability dose-response curve for record CCOC(=O)C(C)OC1=CC=CC2=C1\C=C/N(CC(=O)NC3=CC=C4OCCOC4=C3)C2=O (centres undefined)
Output: 436

Task: Please supply the value of reported AUC of viability dose-response curve for the item CCCN1CCO[C@@H]2c3cc(O)ccc3OC[C@H]21
Output: 441

Task: Specify measured AUC of viability dose-response curve for OC1=CC=C(C=C1)\C2=C(O)\C(=O)C3=C(O2)C=C(O)C=C3O .
Output: 449

Task: In one line, give reported AUC of viability dose-response curve of the entry Oc1nc(-c2ccc(C(F)(F)F)cc2)nc2c1CSCC2 .
Output: 436

Task: Hello, please tell me recorded AUC of viability dose-response curve for this one: C[C@@H](CN1CC(=O)NC(=O)C1)N1CC(=O)NC(=O)C1
Output: 303

Task: Kindly indicate its recorded AUC of viability dose-response curve. Item: Cc1cnc(Nc2ccc(F)cc2Cl)nc1-c1c[nH]c(C(=O)N[C@H](CO)c2cccc(Cl)c2)c1
Output: 411

Task: // fetch AUC of viability dose-response curve given entry CC(C)c1cc(C(C)C)c(CC(=O)N[S+](=O)([O-])Oc2c(C(C)C)cccc2C(C)C)c(C(C)C)c1
Output: 451

Task: Provide one value: measured AUC of viability dose-response curve of O=P(O)(O)C(O)(Cn1ccnc1)P(=O)(O)O
Output: 450

Task: // Input: CC[C@@H]([C@H](C)O)n1ncn(-c2ccc(N3CCN(c4ccc(OCC5CO[C@@](Cn6cncn6)(c6ccc(F)cc6F)C5)cc4)CC3)cc2)c1=O (some centres undefined) . Output its AUC of viability dose-response curve only.
Output: 425

Task: Answer with the recorded AUC of viability dose-response curve for the molecule listed here: CCCCCCCCCCCCCC(=O)N[C@H](CO)[C@H](O)c1ccc([N+](=O)[O-])cc1
Output: 318

Task: Find the measured AUC of viability dose-response curve of CCCNC(=O)Nc1ccc(Oc2ncnc3cc(OC)c(OC)cc23)cc1Cl and report it.
Output: 440

Task: // Input: O=C(O)c1cc(/N=N/c2ccc([S+](=O)([O-])Nc3ccccn3)cc2)ccc1O . Output its AUC of viability dose-response curve only.
Output: 474
